test system: BCRP; assay: MTT cytotoxicity assay, KBH5.0 efflux transporter cell line; format: cell-based; conditions: human, KBH5.0 cells (KB3-1 variant that overexpresses BCRP); KBH5.0 cells (BCRP overexpressing), continuous exposure four days, MTT
Here the recorded log10 of IC50 at 4 days is given for each entry.
Form field - Quantity: IC50 at 4 days; Unit: µM; Scale: log10

Solved entries:
q: Query log10 of IC50 at 4 days on BCRP for "COc1cc2c(cc1OC(=O)OC(C)(C)C)c(=O)n(CCN(C)C)c1c3cc4c(cc3ncc21)OCO4"
a: -2.05

q: Query log10 of IC50 at 4 days on BCRP for "CCOC(=O)Oc1cc2c(=O)n(CCN(C)C)c3c4cc5c(cc4ncc3c2cc1OC)OCO5"
a: -2.10

q: Query log10 of IC50 at 4 days on BCRP for "COc1cc2c(cc1OC(=O)N1CCC(N3CCCCC3)CC1)c(=O)n(CCN(C)C)c1c3cc4c(cc3ncc21)OCO4"
a: 0.04

q: Query log10 of IC50 at 4 days on BCRP for "COc1cc2c(cc1OC(=O)N(C)C)c(=O)n(CCN(C)C)c1c3cc4c(cc3ncc21)OCO4"
a: 0.30

q: Query log10 of IC50 at 4 days on BCRP for "COc1cc2c(cc1OC(=O)CCC1CCCC1)c(=O)n(CCN(C)C)c1c3cc4c(cc3ncc21)OCO4"
a: -1.89

More entries:
q: Query log10 of IC50 at 4 days on BCRP for "COc1cc2c(cc1OC(=O)C(C)(C)C)c(=O)n(CCN(C)C)c1c3cc4c(cc3ncc21)OCO4"
a: -1.77

q: Query log10 of IC50 at 4 days on BCRP for "COc1cc2c(cc1OC(=O)c1ccccc1)c(=O)n(CCN(C)C)c1c3cc4c(cc3ncc21)OCO4"
a: -1.60

q: Query log10 of IC50 at 4 days on BCRP for "COc1cc2c(cc1OC(C)=O)c(=O)n(CCN(C)C)c1c3cc4c(cc3ncc21)OCO4"
a: -1.60

q: Query log10 of IC50 at 4 days on BCRP for "COc1cc2c(cc1OC(=O)c1ccccc1C)c(=O)n(CCN(C)C)c1c3cc4c(cc3ncc21)OCO4"
a: -1.40

q: Query log10 of IC50 at 4 days on BCRP for "CCNC(=O)Oc1cc2c(=O)n(CCN(C)C)c3c4cc5c(cc4ncc3c2cc1OC)OCO5"
a: -1.82

* * *

experiment: MTT cytotoxicity assay, KB3-1 parent cell line; type: cell-based; conditions: human, KB3-1 cells (parent cell line), KB3-1 parent cells, continuous exposure four days
Here the recorded log10(IC50 at 4 days) is given for each entry.
Form field - Quantity: IC50 at 4 days; Unit: µM; Scale: log10

q: Look up log10(IC50 at 4 days) for this compound: "CCNC(=O)Oc1cc2c(=O)n(CCN(C)C)c3c4cc5c(cc4ncc3c2cc1OC)OCO5"
a: -2.40

More entries:
q: Look up log10(IC50 at 4 days) for this compound: "COc1cc2c(cc1OC(=O)OC(C)(C)C)c(=O)n(CCN(C)C)c1c3cc4c(cc3ncc21)OCO4"
a: -2.70

q: Look up log10(IC50 at 4 days) for this compound: "COc1cc2c(cc1OC(=O)N1CCC(N3CCCCC3)CC1)c(=O)n(CCN(C)C)c1c3cc4c(cc3ncc21)OCO4"
a: -0.12

Data origin, for the record: patent US9321781B2
